Reported Enzyme degradation CDK2 (% remaining) @ 10 μM values follow for various compounds
# study system: CDK2 (Homo sapiens)
# Construct: endogenous in cells; host or cells: MDA-MB-231
# procedure summary: CDK protein degradation activity (Western blotting), CDK2
# Type: cell-based
# run conditions: MDA-MB-231 cells, 10 μM, 16 hours, Western blot
Your answer is read as %, so omit the unit and give the number.

compound | uom | measurement
O=C1CC[C@H](N2C(=O)c3cc(F)c(N4CCC(C(=O)N5CCC(CN6CCN(c7ccc(Nc8ncnc9c8ncn9[C@H]8C[C@@H](NC(=O)c9c(Cl)cccc9Cl)C8)cc7)CC6)CC5)CC4)cc3C2=O)C(=O)N1 | % | 20
O=C1CCC(N2C(=O)c3cccc(CCCCN4CCC(CN5CCN(c6ccc(Nc7ncnc8c7ncn8[C@H]7C[C@@H](NC(=O)c8cccc(F)n8)C7)cc6)CC5)CC4)c3C2=O)C(=O)N1 (stereo partly shown) | % | 40

Exercise: Query: Enzyme degradation CDK2 (% remaining) @ 10 μM; subject: O=C1CC[C@H](N2C(=O)c3cccc(N4CCC5(CC4)CC(N4CCN(c6ccc(Nc7ncnc8c7ncn8[C@H]7C[C@@H](NC(=O)Cc8ccccc8)C7)cc6)CC4)C5)c3C2=O)C(=O)N1
Key: 30

Exercise: Another: Cc1cccc(C(=O)NC2CC(n3cnc4c(Nc5ccc(N6CCN(CCC7CCN(C(=O)C8CCN(c9cc%10c(cc9F)C(=O)N([C@H]9CCC(=O)NC9=O)C%10=O)CC8)CC7)CC6)cc5)ncnc43)C2)n1 (stereo partly shown)
Key: 40

Exercise: Another: Cc1cccc(C(=O)NC2CC(n3cnc4c(NCCCN5CCN(CC6CCN(C(=O)CNc7cccc8c7C(=O)N([C@@H]7CCC(=O)NC7=O)C8=O)CC6)CC5)ncnc43)C2)n1 (stereo partly shown)
Key: 100

Exercise: Another: O=C1CC[C@H](N2C(=O)c3ccc(N4CC(C(=O)N5CCN(CC6CCN(c7ccc(Nc8ncnc9c8ncn9C8CC(NC(=O)Cc9ccccc9)C8)cc7)CC6)CC5)C4)cc3C2=O)C(=O)N1 (stereo partly shown)
Key: 30

###

Reported Enzyme degradation CDK2 (% remaining) @ 10 μM values follow for various compounds
# study system: CDK2 (Homo sapiens)
# Construct: endogenous in cells; host or cells: MDA-MB-231
# procedure summary: CDK protein degradation activity (Western blotting), CDK2
# Type: cell-based
# run conditions: MDA-MB-231 cells, 10 μM, 16 hours, Western blot
Your answer is read as %, so omit the unit and give the number.

Below, 6 compounds whose answers are already recorded.
compound | uom | measurement
O=C1CC[C@H](N2C(=O)c3ccc(N4CCC(C(=O)N5CCN(C6CC7(CCN(c8ccc(Nc9ncnc%10c9ncn%10[C@H]9C[C@@H](NC(=O)Cc%10ccccc%10)C9)cc8)CC7)C6)CC5)CC4)cc3C2=O)C(=O)N1 [Compound 361] | % | 10
O=C1CC[C@H](N2C(=O)c3ccc(N4CCC(CN5CCC(CCNc6ncnc7c6ncn7C6CC(NC(=O)Cc7ccccc7)C6)CC5)CC4)cc3C2=O)C(=O)N1 (stereo partly shown) [Compound 423] | % | 20
O=C1CC[C@@H](c2cccc(OCC(=O)N3CCC(CC(=O)N4CCN(c5ccc(Nc6ncnc7c6ncn7[C@H]6C[C@@H](NC(=O)Cc7ccccc7)C6)cc5)CC4)CC3)c2)C(=O)N1 [Compound 227] | % | 70
O=C1CCC(N2C(=O)c3ccc(NCC(=O)N4CCC(CN5CCC(CNc6ncnc7c6ncn7[C@H]6C[C@@H](NC(=O)c7c(Cl)cccc7Cl)C6)CC5)CC4)cc3C2=O)C(=O)N1 (stereo partly shown) [Compound 171] | % | 10
O=C1CC[C@H](N2C(=O)c3ccc(N4CC(C(=O)N5CCC(CN6CCN(c7ccc(Nc8ncnc9c8ncn9C8CC(NC(=O)c9cccc(Cl)n9)C8)cc7)CC6)CC5)C4)cc3C2=O)C(=O)N1 (stereo partly shown) [Compound 451] | % | 30
O=C1CCC(c2ccc(OCC(=O)N3CCC(CCN4CCN(c5ccc(Nc6ncnc7c6ncn7[C@H]6C[C@@H](NC(=O)c7c(Cl)cccc7Cl)C6)cc5)CC4)CC3)cc2)C(=O)N1 (stereo partly shown) [Compound 434] | % | 80

Alright, here's another compound for you.
Exercise: Query: Enzyme degradation CDK2 (% remaining) @ 10 μM; subject: CC(=O)NC1CC(n2cnc3c(NCC4CCN(CC5CCN(C(=O)COc6cccc7c6C(=O)N([C@H]6CCC(=O)NC6=O)C7=O)CC5)CC4)ncnc32)C1 (stereo partly shown) [Compound 155]
Key: 10

###

Reported Enzyme degradation CDK9 (% remaining) @ 0.1 μM values follow for various compounds
# study system: CDK9 (Homo sapiens, UniProt P50750)
# Construct: endogenous in cells; host or cells: MDA-MB-231
# Sequence (P50750 whole entry): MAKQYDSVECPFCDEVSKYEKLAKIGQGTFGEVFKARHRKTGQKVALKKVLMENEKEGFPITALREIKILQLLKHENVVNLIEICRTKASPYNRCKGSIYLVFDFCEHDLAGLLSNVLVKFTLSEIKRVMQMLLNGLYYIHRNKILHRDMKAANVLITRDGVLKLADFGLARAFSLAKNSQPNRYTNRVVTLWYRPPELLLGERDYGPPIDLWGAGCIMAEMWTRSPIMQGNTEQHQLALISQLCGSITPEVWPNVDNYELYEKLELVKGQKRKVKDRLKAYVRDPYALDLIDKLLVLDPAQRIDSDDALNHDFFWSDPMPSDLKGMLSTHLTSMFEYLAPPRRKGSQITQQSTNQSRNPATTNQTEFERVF
# procedure summary: CDK protein degradation activity (Western blotting), CDK9
# Type: cell-based
# run conditions: MDA-MB-231 cells, 0.1 μM, 16 hours, Western blot
# Protocol: In order to evaluate the CDK protein degradation activity of the compounds according to the present invention, the following experiment was conducted. MDA-MB-231 cells were seeded at 5×10^5 cells per well in a 6-well plate. The next day, the compounds were treated in each well to achieve final concentrations of 100 nM, 1 μM, and 10 μM. […] Cell lysates were quantified and separated by size using sodium dodecyl sulfate-polyacrylamide gel electrophoresis (SDS-PAGE). […]
Your answer is read as %, so omit the unit and give the number.

input smiles | measurement
Cc1cccc(C(=O)N[C@H]2C[C@@H](n3cnc4c(NC5CCN(C(=O)CC6CCN(C(=O)COc7cccc8c7C(=O)N([C@H]7CCC(=O)NC7=O)C8=O)CC6)CC5)ncnc43)C2)n1 | 90

Exercise: Hello, I am looking for reported Enzyme degradation CDK9 (% remaining) @ 0.1 μM with CDK9 (Homo sapiens, UniProt P50750) for O=C1CC[C@H](N2C(=O)c3cccc(NCC(=O)N4CCN(CCCN5CCN(c6ccc(Nc7ncnc8c7ncn8[C@H]7C[C@@H](NC(=O)Cc8ccccc8)C7)cc6)CC5)CC4)c3C2=O)C(=O)N1 . Could you help?
Key: 20

###

# study system: CDK2 (Homo sapiens, UniProt P24941)
# Construct: endogenous in cells; host or cells: MDA-MB-231
# procedure summary: CDK protein degradation activity (Western blotting), CDK2
# Type: cell-based
# run conditions: MDA-MB-231 cells, 1 μM, 16 hours, Western blot
// boundary case: Enzyme degradation CDK2 (% remaining) @ 1 μM equal to 20% maps to false (0); strictly smaller maps to true (1)

Solved entries (count: 5):
molecule | group label
O=C1CC[C@H](N2C(=O)c3cccc(OCC(=O)N4CCC(CN5CCC(CNc6ncnc7c6ncn7C6CC(NC(=O)c7c(Cl)cccc7Cl)C6)CC5)CC4)c3C2=O)C(=O)N1 (stereo partly shown) | true (1)
O=C1CC[C@H](N2C(=O)c3ccc(N4CC(C(=O)N5CCC(CCCN6CCN(c7ccc(Nc8ncnc9c8ncn9C8CC(NC(=O)Cc9ccccc9)C8)cc7)CC6)CC5)C4)cc3C2=O)C(=O)N1 (stereo partly shown) | false (0)
O=C1CC[C@@H](c2ccc(OCC(=O)N3CCC(CCN4CCN(c5ccc(Nc6ncnc7c6ncn7C6CC(NC(=O)Cc7ccccc7)C6)cc5)CC4)CC3)cc2)C(=O)N1 (stereo partly shown) | false (0)
O=C1CC[C@H](N2C(=O)c3cccc(N4CCC(CCCN5CCN(c6ccc(Nc7ncnc8c7ncn8[C@H]7C[C@@H](NC(=O)Cc8ccccc8)C7)cc6)CC5)CC4)c3C2=O)C(=O)N1 | false (0)
O=C1CC[C@H](N2C(=O)c3ccc(N4CCN(CCCC5CCN(c6ccc(Nc7ncnc8c7ncn8C7CC(NC(=O)Cc8ccccc8)C7)cc6)CC5)CC4)cc3C2=O)C(=O)N1 (stereo partly shown) | true (1)

Exercise: # strict comparison: is reported Enzyme degradation CDK2 (% remaining) @ 1 μM < 20%? input = O=C1CC[C@H](N2C(=O)c3ccc(NCC(=O)N4CCC5(CC4)CC(N4CCN(c6ccc(Nc7ncnc8c7ncn8[C@H]7C[C@@H](NC(=O)Cc8ccccc8)C7)cc6)CC4)C5)cc3C2=O)C(=O)N1
Key: false (0)

Exercise: Another: Cc1cccc(C(=O)N[C@H]2C[C@@H](n3cnc4c(NCc5ccc(OCCCN6CCN(C(=O)COc7ccc8c(c7)C(=O)N([C@H]7CCC(=O)NC7=O)C8=O)CC6)cc5)ncnc43)C2)n1
Key: false (0)

###

Reported Enzyme degradation CDK2 (% remaining) @ 1 μM values follow for various molecules
# study system: CDK2 (Homo sapiens)
# Construct: endogenous in cells; host or cells: MDA-MB-231
# procedure summary: CDK protein degradation activity (Western blotting), CDK2
# Format: cell-based
# run conditions: MDA-MB-231 cells, 1 μM, 16 hours, Western blot
Your answer is read as %, so omit the unit and give the number.

molecule | uom | measurement
Cc1cccc(C(=O)NC2CC(n3cnc4c(Nc5ccc(N6CCN(C7CC8(CCN(C(=O)C9CCN(c%10ccc%11c(c%10)C(=O)N([C@H]%10CCC(=O)NC%10=O)C%11=O)CC9)CC8)C7)CC6)cc5)ncnc43)C2)n1 (stereo partly drawn) | % | 60

Alright, here's another molecule for you.
Exercise: Query: Enzyme degradation CDK2 (% remaining) @ 1 μM; subject: Cc1cccc(C(=O)N[C@H]2C[C@@H](n3cnc4c(NCc5ccc(N6CCN(CC7CCN(c8ccc9c(c8)C(=O)N([C@H]8CCC(=O)NC8=O)C9=O)CC7)CC6)cc5)ncnc43)C2)n1
Key: 10
